Where do these numbers come from? They come from ChEMBL document CHEMBL1125728.

Target: Dopamine receptor (Rattus norvegicus) (UniProt P25115+P19020+P30729+P18901+P61169)
Assay: Inhibitory binding activity against dopamine receptor in rat striatal membranes using [3H]HAL as the radioligand.
Type: cell membranes
Design: concentration or dose not given beside the values
Settings: Striatum; Membrane; concentration not given here
Outcome: true for inhibition of at least 20%; false for anything lower.

* O=c1ccoc2cc(OCCCN3CCN(c4cccc(O)c4)CC3)ccc12 | true
* O=c1ccoc2cc(OCCCN3CCN(c4ccccc4Cl)CC3)ccc12 | true
* Cc1cccc(N2CCN(CCCOc3ccc4c(=O)ccoc4c3)CC2)c1 | true
* Cc1ccc(N2CCN(CCCOc3ccc4c(=O)ccoc4c3)CC2)cc1 | true
* Cc1cccc(N2CCN(CCCOc3ccc4c(=O)ccoc4c3)CC2)c1C | false
* O=c1ccoc2cc(OCCCN3CCc4c(oc5ccccc45)C3)ccc12 | false
* O=c1ccoc2cc(OCCCCN3CCN(c4ccccc4)CC3)ccc12 | true
* O=c1ccoc2cc(OCCCN3CCN(Cc4ccccc4)CC3)ccc12 | true
* CCN(CCCOc1ccc2c(=O)ccoc2c1)CCCc1ccccc1 | true
* O=C1CN(CCCOc2ccc3c(=O)ccoc3c2)CC(=O)N1c1ccccc1 | false

###

Target: D(1A) dopamine receptor (Rattus norvegicus, UniProt P18901)
Sequence (P18901 whole entry): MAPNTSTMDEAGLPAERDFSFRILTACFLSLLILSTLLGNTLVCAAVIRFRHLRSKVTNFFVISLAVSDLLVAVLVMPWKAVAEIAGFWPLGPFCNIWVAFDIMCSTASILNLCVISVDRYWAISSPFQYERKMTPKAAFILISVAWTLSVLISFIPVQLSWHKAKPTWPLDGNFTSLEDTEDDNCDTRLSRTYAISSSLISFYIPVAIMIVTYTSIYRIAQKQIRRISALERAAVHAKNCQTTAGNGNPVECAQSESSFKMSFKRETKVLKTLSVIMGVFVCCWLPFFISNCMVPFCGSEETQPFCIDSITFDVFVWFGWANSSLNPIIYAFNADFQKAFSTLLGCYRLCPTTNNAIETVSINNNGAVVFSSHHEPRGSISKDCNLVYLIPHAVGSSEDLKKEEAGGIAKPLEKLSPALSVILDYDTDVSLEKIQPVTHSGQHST
Assay: Compound was tested for its inhibitory effect on the binding profile in Dopamine receptor D1 using [3H]flupenthixol in rat brain.
pIC50: −log10 of the molar value.
quantity-kind: pIC50

- O=c1ccoc2cc(OCCCN3CCN(c4ccccn4)CC3)ccc12: 4.66

###

Biological target: Dopamine receptor
Assay: Compound was tested for inhibitory binding activity against Dopamine receptor in rat striatal membranes using [3H]HAL as the radioligand.
Type: cell membranes, Striatum, Membrane
Below, each of the compounds is paired with its reported IC50 value.
quantity-kind: IC50

* O=c1ccoc2cc(OCCCN3CCC=C(c4ccccc4)C3)ccc12 | 0.243 µM
* O=c1ccoc2ccc(OCCCCN3CCN(c4ncccn4)CC3)cc12 | 0.349 µM
* O=c1ccoc2cc(OCCCN3CCCN(c4ccccc4)CC3)ccc12 | 0.884 µM
* O=c1ccoc2cc(OCCCN3CCN(c4ccccn4)CC3)ccc12 | 1 µM

###

Tested on: Rattus norvegicus
Assay: Compound tested for its effective dose to inhibit rat locomotor activity after sc administration of the compound.
Assay type: functional
Measured ED50, listed per entry.
quantity-kind: ED50 (mg/kg)

* C1=C(c2ccccc2)CCN(CCCCc2c[nH]c3ccccc23)C1 | 4.69
* O=c1ccoc2cc(OCCCN3CCN(c4ccccn4)CC3)ccc12 | 0.58
* CN1CCc2cccc3c2[C@H]1Cc1ccc(O)c(O)c1-3 [APOMORPHINE] | 0.03
* CCCN1CCCC(c2ccccc2)C1 (single isomer, unassigned; (+)) | 3
